Ref: patent US20140242080A1

Task for the reader: assign each of the following binders its reported Fold increase over parent.
system_tested: T1, hu-MCSP(D3 domain)-avi-his (human, UniProt Q6UVK1 1582-2224)
T1 construct: Recombinant D3 domain with avi and his tags; also called human MCSP(D3 domain)-avi-his; Human MCSP D3
T1 sequence: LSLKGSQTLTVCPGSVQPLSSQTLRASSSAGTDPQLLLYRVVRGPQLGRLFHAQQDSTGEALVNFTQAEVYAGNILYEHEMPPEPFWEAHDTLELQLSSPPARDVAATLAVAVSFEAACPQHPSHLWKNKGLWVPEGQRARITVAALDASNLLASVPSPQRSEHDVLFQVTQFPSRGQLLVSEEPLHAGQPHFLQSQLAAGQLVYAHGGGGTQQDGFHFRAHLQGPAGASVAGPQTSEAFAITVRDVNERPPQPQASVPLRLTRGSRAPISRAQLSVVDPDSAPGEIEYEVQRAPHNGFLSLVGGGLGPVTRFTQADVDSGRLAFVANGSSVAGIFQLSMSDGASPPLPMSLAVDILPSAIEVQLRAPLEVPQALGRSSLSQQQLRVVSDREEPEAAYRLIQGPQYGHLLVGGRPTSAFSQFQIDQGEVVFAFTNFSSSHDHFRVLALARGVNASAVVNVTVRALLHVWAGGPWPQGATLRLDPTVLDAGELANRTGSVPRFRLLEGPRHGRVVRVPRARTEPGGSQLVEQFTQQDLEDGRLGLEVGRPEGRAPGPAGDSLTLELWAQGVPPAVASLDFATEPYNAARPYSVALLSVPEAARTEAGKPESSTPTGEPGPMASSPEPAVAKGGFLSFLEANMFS
run_description: ratio of ProteOn IgG KD, parent M4-3/ML2 against variant
Answer in fold, number only, no unit symbol.

Task: Can you look up the measured Fold increase over parent of M4-3/ML2(G3) IgG (antibody, V domains shown, Human IgG1) VH: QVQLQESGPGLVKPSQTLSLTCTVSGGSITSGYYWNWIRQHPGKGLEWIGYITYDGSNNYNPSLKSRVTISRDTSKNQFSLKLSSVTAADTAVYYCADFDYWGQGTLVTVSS VL: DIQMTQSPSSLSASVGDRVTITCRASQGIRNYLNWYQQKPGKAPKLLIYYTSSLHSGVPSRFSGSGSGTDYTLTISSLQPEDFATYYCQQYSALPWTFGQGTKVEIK for me?
Result: 6.7

Task: Fold increase over parent for M4-3/ML2(E10/G3) IgG (antibody, V domains shown, Human IgG1) VH: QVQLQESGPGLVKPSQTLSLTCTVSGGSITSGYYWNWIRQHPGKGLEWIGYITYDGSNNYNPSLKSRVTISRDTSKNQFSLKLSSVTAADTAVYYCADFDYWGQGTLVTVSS VL: DIQMTQSPSSLSASVGDRVTITCRASYGIRGYLNWYQQKPGKAPKLLIYYTSSLHSGVPSRFSGSGSGTDFTLTISSLQPEDFATYHCQQYSALPWTFGQGTKVEIK ?
Result: 5

Task: Field request: Fold increase over parent | item: M4-3(C1)/ML2(C5) IgG (antibody, V domains shown, Human IgG1) VH: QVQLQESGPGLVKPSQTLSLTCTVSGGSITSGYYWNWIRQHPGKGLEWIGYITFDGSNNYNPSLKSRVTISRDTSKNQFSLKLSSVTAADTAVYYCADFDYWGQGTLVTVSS VL: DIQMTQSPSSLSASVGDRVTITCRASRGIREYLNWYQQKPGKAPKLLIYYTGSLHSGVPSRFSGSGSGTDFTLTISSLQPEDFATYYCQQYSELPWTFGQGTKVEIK
Result: 10

Task: Name the recorded Fold increase over parent for M4-(A7)/ML2(C5) IgG (antibody, V domains shown, Human IgG1; also called M4-3(A7)/ML2(C5)) VH: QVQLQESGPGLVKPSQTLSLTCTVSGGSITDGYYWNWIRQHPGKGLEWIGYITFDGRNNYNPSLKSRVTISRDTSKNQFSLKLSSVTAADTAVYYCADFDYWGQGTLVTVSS VL: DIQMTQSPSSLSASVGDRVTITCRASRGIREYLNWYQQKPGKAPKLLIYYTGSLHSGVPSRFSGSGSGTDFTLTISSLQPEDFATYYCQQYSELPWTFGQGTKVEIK .
Result: 28.6

Task: # Fold increase over parent lookup, item M4-3(B7)/ML2 IgG (antibody, V domains shown, Human IgG1) VH: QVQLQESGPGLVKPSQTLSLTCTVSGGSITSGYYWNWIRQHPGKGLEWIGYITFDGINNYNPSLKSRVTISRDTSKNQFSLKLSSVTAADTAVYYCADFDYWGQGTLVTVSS VL: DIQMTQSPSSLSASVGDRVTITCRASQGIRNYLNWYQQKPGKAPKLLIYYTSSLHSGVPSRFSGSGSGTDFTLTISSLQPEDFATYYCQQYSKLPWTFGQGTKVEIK
Result: 4
